B1: Far upstream element-binding protein 1, residues 98 to 169; numbered along this chain, Q96AE4 (parent)
chain: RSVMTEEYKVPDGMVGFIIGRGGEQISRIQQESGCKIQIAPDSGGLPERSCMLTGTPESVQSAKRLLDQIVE

- Variants of: B1
- experiment-notes: abundance fitness (aPCA) (normalised: wild type 0, dead -1); higher = more abundant; growth selection in yeast, the domain comes from the species named
- study-conditions: Homo sapiens
measured-parameter: abundance fitness
No unit in the answer, only the number.

Would you mind telling me what abundance fitness value was observed for RSLMTEEYKVPDGMVGFIIGRGGEQISRIQQESGCKIQIAPDSGGLPERSCMLTGTPESVQSAKRLLDQIVE ?
-0.047
